Just for reference, ChEMBL document CHEMBL2429791 is where these values come from.

Reported Ki values for a set of compounds
Biological target: Glutamate carboxypeptidase 2 (Homo sapiens, UniProt Q04609)
Sequence (Q04609 whole entry): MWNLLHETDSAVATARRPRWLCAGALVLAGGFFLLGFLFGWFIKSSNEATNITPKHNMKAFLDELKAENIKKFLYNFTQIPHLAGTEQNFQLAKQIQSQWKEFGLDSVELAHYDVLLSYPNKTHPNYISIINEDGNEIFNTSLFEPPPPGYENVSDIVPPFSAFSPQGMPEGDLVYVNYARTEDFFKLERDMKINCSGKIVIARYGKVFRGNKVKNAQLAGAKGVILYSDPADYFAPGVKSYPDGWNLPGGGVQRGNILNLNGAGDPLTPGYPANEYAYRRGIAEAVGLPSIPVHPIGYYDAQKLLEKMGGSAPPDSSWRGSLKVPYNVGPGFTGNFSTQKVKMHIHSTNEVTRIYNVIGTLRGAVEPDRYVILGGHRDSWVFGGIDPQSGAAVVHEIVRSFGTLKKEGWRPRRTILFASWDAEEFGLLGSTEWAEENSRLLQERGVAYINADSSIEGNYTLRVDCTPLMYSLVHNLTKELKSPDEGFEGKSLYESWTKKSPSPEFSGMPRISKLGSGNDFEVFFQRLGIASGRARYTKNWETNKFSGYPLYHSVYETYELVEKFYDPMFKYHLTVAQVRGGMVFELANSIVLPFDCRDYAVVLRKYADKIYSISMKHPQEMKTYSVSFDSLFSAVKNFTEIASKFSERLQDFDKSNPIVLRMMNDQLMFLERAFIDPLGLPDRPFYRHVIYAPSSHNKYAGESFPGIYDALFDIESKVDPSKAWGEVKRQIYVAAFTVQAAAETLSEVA
Assay: Displacement of [125I]-DCIT from PSMA in human LNCaP cells after 1 hr by gamma counting
PROPERTY_NAME: Ki (nM)

- COMPOUND: "O=C(O)CC[C@H](NC(=O)N[C@@H](CSC1CC(=O)N(CCCCCNC(=O)CNC(=O)c2cccc(I)c2)C1=O)C(=O)O)C(=O)O (some centres not stated)"
  RECORDED_MEASUREMENT: 7.91
- COMPOUND: "CNCC(=O)N[C@@H](CCCCN1C(=O)CC(SC[C@H](NC(=O)N[C@@H](CCC(=O)O)C(=O)O)C(=O)O)C1=O)C(=O)O (some centres not stated)"
  RECORDED_MEASUREMENT: 94.8
- COMPOUND: "O=C(O)CC[C@H](NC(=O)N[C@@H](CS)C(=O)O)C(=O)O"
  RECORDED_MEASUREMENT: 376
- COMPOUND: "O=C(O)CC[C@H](NC(=O)N[C@@H](CSC1CC(=O)N(CCCC[C@H](NC(=O)CNC(=O)c2cccc(I)c2)C(=O)O)C1=O)C(=O)O)C(=O)O (some centres not stated)"
  RECORDED_MEASUREMENT: 4.97
- COMPOUND: "O=C(O)CC[C@H](NC(=O)N[C@@H](CSC1CC(=O)N(CCCC[C@H](NC(=O)CCNC(=O)c2cccc(I)c2)C(=O)O)C1=O)C(=O)O)C(=O)O (some centres not stated)"
  RECORDED_MEASUREMENT: 6.26
- COMPOUND: "O=C(O)CC[C@H](NC(=O)N[C@@H](CSC1CC(=O)N(CCCC[C@H](NC(=O)CCCNC(=O)c2cccc(I)c2)C(=O)O)C1=O)C(=O)O)C(=O)O (some centres not stated)"
  RECORDED_MEASUREMENT: 2.95
- COMPOUND: "CN1C(=O)CC(SC[C@H](NC(=O)N[C@@H](CCC(=O)O)C(=O)O)C(=O)O)C1=O (some centres not stated)"
  RECORDED_MEASUREMENT: 62.1

---

Assay: Ratio of drug level in human LNCAP cells xenografted in C.B.-17/Icr +/+ Jcl mouse to blood of C.B.-17/Icr +/+ Jcl mouse xenografted with human LNCAP and PC3 cells at 25.9 MBq, iv after 1 hr
Type: ADME, organism-based
Conditions: LNCAP tumour xenograft relative to blood
PROPERTY_NAME: Kp at 1 h

- COMPOUND: "O=C(O)CC[C@H](NC(=O)N[C@@H](CSC1CC(=O)N(CCCC[C@H](NC(=O)CNC(=O)c2cccc([125I])c2)C(=O)O)C1=O)C(=O)O)C(=O)O (stereo partly specified)"
  RECORDED_MEASUREMENT: 6.9

---

Target: Glutamate carboxypeptidase 2 (Homo sapiens)
Assay: Displacement of [125I]-DCIT from PSMA in human LNCaP cells after 1 hr by gamma counting
pKi: −log10 of the molar value.

- MOLECULE: "O=C(O)CC[C@H](NC(=O)N[C@@H](CSC1CC(=O)N(CCCC[C@H](NC(=O)CNC(=O)c2ccccc2)C(=O)O)C1=O)C(=O)O)C(=O)O (stereo partly drawn)"
  pKi: 8.09
- MOLECULE: "O=C(O)CC[C@H](NC(=O)N[C@@H](CSC1CC(=O)N(CCCC[C@H](NC(=O)c2cccc(I)c2)C(=O)O)C1=O)C(=O)O)C(=O)O (stereo partly drawn)"
  pKi: 8.55
- MOLECULE: "O=C(O)CC[C@H](NC(=O)N[C@@H](CSC1CC(=O)N(CCCC[C@H](NC(=O)CCCCNC(=O)c2cccc(I)c2)C(=O)O)C1=O)C(=O)O)C(=O)O (stereo partly drawn)"
  pKi: 8.67
